TARGET UNDER TEST: human sodium channels Nav 1.8 (Homo sapiens, UniProt Q9Y5Y9)
Sequence (Q9Y5Y9 whole entry): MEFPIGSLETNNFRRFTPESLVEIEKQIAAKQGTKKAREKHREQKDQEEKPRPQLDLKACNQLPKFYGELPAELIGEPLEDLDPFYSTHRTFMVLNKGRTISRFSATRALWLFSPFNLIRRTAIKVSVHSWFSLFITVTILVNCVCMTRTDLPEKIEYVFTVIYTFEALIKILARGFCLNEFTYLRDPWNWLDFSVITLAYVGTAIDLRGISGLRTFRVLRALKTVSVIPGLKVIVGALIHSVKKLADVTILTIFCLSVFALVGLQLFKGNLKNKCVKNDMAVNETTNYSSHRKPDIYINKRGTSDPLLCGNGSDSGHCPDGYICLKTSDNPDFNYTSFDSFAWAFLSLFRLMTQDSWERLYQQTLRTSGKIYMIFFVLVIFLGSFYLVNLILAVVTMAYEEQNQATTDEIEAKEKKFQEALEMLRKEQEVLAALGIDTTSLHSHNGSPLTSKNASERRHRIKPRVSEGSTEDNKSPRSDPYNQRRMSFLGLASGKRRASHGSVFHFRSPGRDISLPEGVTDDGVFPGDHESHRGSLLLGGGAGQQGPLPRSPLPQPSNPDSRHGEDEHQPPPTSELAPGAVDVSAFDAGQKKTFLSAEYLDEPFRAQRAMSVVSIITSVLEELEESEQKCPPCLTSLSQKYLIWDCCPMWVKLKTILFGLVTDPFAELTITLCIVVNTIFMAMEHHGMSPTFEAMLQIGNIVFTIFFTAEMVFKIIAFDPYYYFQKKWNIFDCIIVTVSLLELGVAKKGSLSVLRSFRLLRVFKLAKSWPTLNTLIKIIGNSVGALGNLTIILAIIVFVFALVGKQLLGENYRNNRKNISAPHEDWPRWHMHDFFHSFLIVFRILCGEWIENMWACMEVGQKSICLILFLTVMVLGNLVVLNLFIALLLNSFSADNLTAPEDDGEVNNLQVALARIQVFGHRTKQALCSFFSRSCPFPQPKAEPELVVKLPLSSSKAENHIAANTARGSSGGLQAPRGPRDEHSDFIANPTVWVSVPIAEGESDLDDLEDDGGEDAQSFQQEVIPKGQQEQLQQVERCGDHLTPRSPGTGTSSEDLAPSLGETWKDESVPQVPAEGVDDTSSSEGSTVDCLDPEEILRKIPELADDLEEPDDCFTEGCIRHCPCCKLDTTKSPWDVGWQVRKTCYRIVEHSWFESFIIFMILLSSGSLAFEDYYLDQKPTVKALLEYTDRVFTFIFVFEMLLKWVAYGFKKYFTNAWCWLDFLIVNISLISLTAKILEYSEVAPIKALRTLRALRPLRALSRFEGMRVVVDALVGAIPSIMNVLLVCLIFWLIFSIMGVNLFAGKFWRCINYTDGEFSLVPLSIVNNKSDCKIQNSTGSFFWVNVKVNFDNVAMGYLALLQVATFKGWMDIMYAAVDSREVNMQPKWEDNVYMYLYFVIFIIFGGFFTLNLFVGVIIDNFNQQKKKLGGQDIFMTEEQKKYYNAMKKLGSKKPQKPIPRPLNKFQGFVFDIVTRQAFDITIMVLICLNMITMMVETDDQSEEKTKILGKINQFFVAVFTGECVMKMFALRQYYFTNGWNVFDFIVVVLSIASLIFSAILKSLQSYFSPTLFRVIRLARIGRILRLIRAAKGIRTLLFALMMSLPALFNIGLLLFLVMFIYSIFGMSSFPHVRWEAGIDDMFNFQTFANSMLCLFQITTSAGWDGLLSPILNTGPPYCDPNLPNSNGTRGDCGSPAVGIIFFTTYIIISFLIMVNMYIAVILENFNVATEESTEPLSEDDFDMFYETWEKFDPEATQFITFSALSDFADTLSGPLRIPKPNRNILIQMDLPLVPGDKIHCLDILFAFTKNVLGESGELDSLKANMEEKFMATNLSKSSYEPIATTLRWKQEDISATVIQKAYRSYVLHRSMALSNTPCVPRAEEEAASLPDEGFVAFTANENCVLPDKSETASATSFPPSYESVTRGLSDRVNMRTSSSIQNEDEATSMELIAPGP
TEST SUMMARY: Automated whole-cell voltage-clamp (ScreenPatch 384P) sodium current block, Nav 1.8
ASSAY CONTEXT: CHO cells stably expressing human Nav 1.8; inactivation step -40 mV for 8 seconds, test step 10 mV (TP1A); exposure at least five minutes; room temperature; mean if two or more assays; read-out: Nav1.8 IC50

{"MOLECULE": "[2H]C([2H])(C)Oc1ccc(-c2cncc(C(=O)NOCc3cc(OC)ccc3F)n2)cn1 [Compound 50]", "TARGET UNDER TEST": "human sodium channels Nav 1.8 (Homo sapiens, UniProt Q9Y5Y9)", "IC50": "> 1000 nM"}
{"MOLECULE": "CCOc1ccc(-c2cncc(C(=O)NOCc3occc3OC)n2)cn1 [Compound 66]", "TARGET UNDER TEST": "human sodium channels Nav 1.8 (Homo sapiens, UniProt Q9Y5Y9)", "IC50": "> 1000 nM"}
{"MOLECULE": "[2H]C([2H])([2H])Oc1ccc(F)c(CONC(=O)c2cncc(-c3ccc(OC([2H])([2H])C([2H])([2H])[2H])nc3)n2)c1 [Compound 53]", "TARGET UNDER TEST": "human sodium channels Nav 1.8 (Homo sapiens, UniProt Q9Y5Y9)", "IC50": "> 1000 nM"}
{"MOLECULE": "COc1ccc(F)c(CONC(=O)c2cncc(-c3ccc(OC(F)F)nc3)n2)c1 [Compound 77]", "TARGET UNDER TEST": "human sodium channels Nav 1.8 (Homo sapiens, UniProt Q9Y5Y9)", "IC50": "> 1000 nM"}
{"MOLECULE": "CCOc1ccc(-c2cncc(C(=O)NOCc3cccn3C)n2)cn1 [Compound 60]", "TARGET UNDER TEST": "human sodium channels Nav 1.8 (Homo sapiens, UniProt Q9Y5Y9)", "IC50": "< 500 nM"}
{"MOLECULE": "CCOc1ccc(-c2cncc(C(=O)NOCc3ocnc3C)n2)cn1 [Compound 65]", "TARGET UNDER TEST": "human sodium channels Nav 1.8 (Homo sapiens, UniProt Q9Y5Y9)", "IC50": "> 1000 nM"}
{"MOLECULE": "CCOc1ccc(-c2cncc(C(=O)NOCc3cc(OC)ccc3O)n2)cn1 [Compound 44]", "TARGET UNDER TEST": "human sodium channels Nav 1.8 (Homo sapiens, UniProt Q9Y5Y9)", "IC50": "> 1000 nM"}
{"MOLECULE": "CCOc1ccc(-c2cncc(C(=O)NOCc3cc(O)ccc3F)n2)cc1 [Compound 14]", "TARGET UNDER TEST": "human sodium channels Nav 1.8 (Homo sapiens, UniProt Q9Y5Y9)", "IC50": "< 500 nM"}

----------
TARGET UNDER TEST: human sodium channels Nav 1.8 (Homo sapiens)
TEST SUMMARY: Automated whole-cell voltage-clamp (ScreenPatch 384P) sodium current block, Nav 1.8
ASSAY CONTEXT: CHO cells stably expressing human Nav 1.8; inactivation step -40 mV for 8 seconds, test step 10 mV (TP1A); exposure at least five minutes; room temperature; mean if two or more assays; read-out: Nav1.8 IC50
pIC50: −log10 of the molar value.
Examples of compounds with documented pIC50 follow.

{"COMPOUND": "[2H]C([2H])([2H])Oc1ccc(F)c(C([2H])([2H])ONC(=O)c2cncc(-c3ccc(OC([2H])([2H])C([2H])([2H])[2H])nc3)n2)c1 [Compound 54]", "pIC50": "< 6.00"}
{"COMPOUND": "COc1cnc(F)c(CONC(=O)c2ccnc(-c3ccc(OC(F)F)nc3)n2)c1 [Compound 117]", "pIC50": "< 6.00"}
{"COMPOUND": "CCOc1ccc(-c2cncc(C(=O)NOCc3nccn3CC)n2)cn1 [Compound 61]", "pIC50": "> 6.30"}
{"COMPOUND": "CCOc1ccc(-c2cncc(C(=O)NOCc3cc(O)ccc3F)n2)cn1 [Compound 43]", "pIC50": "< 6.00"}
{"COMPOUND": "CCOc1ccc(-c2cncc(C(=O)NOCc3cc(C(C)N)ccc3F)n2)cc1 (centres unmarked) [Compound 17]", "pIC50": "> 6.30"}
{"COMPOUND": "CCOc1ccc(-c2cncc(C(=O)NOCc3cccc(OC)c3)n2)cn1 [Compound 33]", "pIC50": "> 6.30"}
{"COMPOUND": "COc1ccc(-c2cncc(C(=O)NOCc3cc(OC)ccc3F)n2)cc1 [Compound 2]", "pIC50": "> 6.30"}
{"COMPOUND": "COc1ccc(F)c(CONC(=O)c2cncc(-c3ccc([S+](C)[O-])cc3)n2)c1 (centres unmarked) [Compound 29]", "pIC50": "< 6.00"}

----------
TARGET UNDER TEST: human sodium channels Nav 1.8 (Homo sapiens)
TEST SUMMARY: Automated whole-cell voltage-clamp (ScreenPatch 384P) sodium current block, Nav 1.8
ASSAY CONTEXT: CHO cells stably expressing human Nav 1.8; inactivation step -40 mV for 8 seconds, test step 10 mV (TP1A); exposure at least five minutes; room temperature; mean if two or more assays; read-out: Nav1.8 IC50
# IC50 listing for each entry below

{"COMPOUND": "CCOc1cc(C)c(-c2cncc(C(=O)NOCc3cc(OC)ccc3F)n2)cn1", "TARGET UNDER TEST": "human sodium channels Nav 1.8 (Homo sapiens)", "IC50": "> 1000 nM"}
{"COMPOUND": "CCOc1ccc(-c2cncc(C(=O)NOCc3cncn3C(C)C)n2)cn1", "TARGET UNDER TEST": "human sodium channels Nav 1.8 (Homo sapiens)", "IC50": "> 1000 nM"}
{"COMPOUND": "CCOc1ccc(-c2cncc(C(=O)NOCc3cc(OC)ccc3F)n2)c(O)c1", "TARGET UNDER TEST": "human sodium channels Nav 1.8 (Homo sapiens)", "IC50": "> 1000 nM"}
{"COMPOUND": "CCOc1ccc(-c2cncc(C(=O)NOCc3cc(OC)ccc3F)n2)cn1", "TARGET UNDER TEST": "human sodium channels Nav 1.8 (Homo sapiens)", "IC50": "< 500 nM"}
{"COMPOUND": "COc1ccc(F)c(CONC(=O)c2cncc(-c3ccc(OC4CN(C)C4)cc3)n2)c1", "TARGET UNDER TEST": "human sodium channels Nav 1.8 (Homo sapiens)", "IC50": "500 to 1000 nM"}
{"COMPOUND": "CCOc1ccc(-c2cncc(C(=O)NOCc3cc(N(C)C)cnc3F)n2)cn1 [Compound 41]", "TARGET UNDER TEST": "human sodium channels Nav 1.8 (Homo sapiens)", "IC50": "< 500 nM"}
{"COMPOUND": "CCOc1ccc(-c2cncc(C(=O)NOCc3[nH]cnc3C)n2)cn1", "TARGET UNDER TEST": "human sodium channels Nav 1.8 (Homo sapiens)", "IC50": "> 1000 nM"}
{"COMPOUND": "CCOc1ccc(-c2cncc(C(=O)NOCc3cc(OC(C)C)ccc3F)n2)cc1", "TARGET UNDER TEST": "human sodium channels Nav 1.8 (Homo sapiens)", "IC50": "< 500 nM"}
{"COMPOUND": "CCOc1ccc(-c2nc(C(=O)NOCc3cc(OC)ccc3F)cnc2N)cn1", "TARGET UNDER TEST": "human sodium channels Nav 1.8 (Homo sapiens)", "IC50": "< 500 nM"}

----------
TARGET UNDER TEST: human sodium channels Nav 1.8 (Homo sapiens, UniProt Q9Y5Y9)
TEST SUMMARY: Automated whole-cell voltage-clamp (ScreenPatch 384P) sodium current block, Nav 1.8
ASSAY CONTEXT: CHO cells stably expressing human Nav 1.8; inactivation step -40 mV for 8 seconds, test step 10 mV (TP1A); exposure at least five minutes; room temperature; mean if two or more assays; read-out: Nav1.8 IC50

{"SMILES STRUCTURE": "CN(C)c1ccc(F)c(CONC(=O)c2cncc(-c3ccc(OC(F)F)nc3)n2)c1", "TARGET UNDER TEST": "human sodium channels Nav 1.8 (Homo sapiens, UniProt Q9Y5Y9)", "IC50": "> 1000 nM"}
{"SMILES STRUCTURE": "COc1ccc(F)c(CONC(=O)c2cncc(-c3ccc(O)cc3)n2)c1", "TARGET UNDER TEST": "human sodium channels Nav 1.8 (Homo sapiens, UniProt Q9Y5Y9)", "IC50": "> 1000 nM"}
{"SMILES STRUCTURE": "CCOc1ccc(-c2cnc(N)c(C(=O)NOCc3cc(OC)ccc3F)n2)cn1", "TARGET UNDER TEST": "human sodium channels Nav 1.8 (Homo sapiens, UniProt Q9Y5Y9)", "IC50": "500 to 1000 nM"}
{"SMILES STRUCTURE": "COc1ccc(F)c(CONC(=O)c2cncc(-c3ccc(OCCC4CNC4)cc3)n2)c1", "TARGET UNDER TEST": "human sodium channels Nav 1.8 (Homo sapiens, UniProt Q9Y5Y9)", "IC50": "> 1000 nM"}
{"SMILES STRUCTURE": "COc1cncc(CONC(=O)c2cncc(-c3ccc(OC(F)F)nc3)n2)c1", "TARGET UNDER TEST": "human sodium channels Nav 1.8 (Homo sapiens, UniProt Q9Y5Y9)", "IC50": "> 1000 nM"}
{"SMILES STRUCTURE": "CCOc1ccc(-c2cncc(C(=O)NOCc3cccc(OC)c3)n2)cc1", "TARGET UNDER TEST": "human sodium channels Nav 1.8 (Homo sapiens, UniProt Q9Y5Y9)", "IC50": "< 500 nM"}
{"SMILES STRUCTURE": "CCOc1ccc(-c2cncc(C(=O)NOCc3cc(OC)ccc3C)n2)cn1", "TARGET UNDER TEST": "human sodium channels Nav 1.8 (Homo sapiens, UniProt Q9Y5Y9)", "IC50": "> 1000 nM"}
{"SMILES STRUCTURE": "COc1ccc(F)c(CONC(=O)c2cccc(-c3ccc(OC(F)F)nc3)n2)c1", "TARGET UNDER TEST": "human sodium channels Nav 1.8 (Homo sapiens, UniProt Q9Y5Y9)", "IC50": "> 1000 nM"}
